Assay: in vitro
assayEndpoint: viability at 4 days, 1 nM (%)
Answers are plain numbers, in %.

The measured viability at 4 days, 1 nM associated with CC(C)(CC(=O)O[C@H]1CC[C@]2(C)[C@H]3CC[C@@H]4[C@H]5[C@H](C(C)(O)CO)CC[C@]5(C(=O)N5CCC[C@@H]5c5nc(-c6ccccc6)no5)CC[C@@]4(C)[C@]3(C)CC[C@H]2C1(C)C)C(=O)O (stereo partly shown) reads 94

====

Assay: in vitro
assayEndpoint: viability at 4 days, 100 μM (%)
Give bare numbers, in %.

- molecule: "C=C(C)[C@@H]1CC[C@]2(C(=O)N3CCC[C@H]3c3ncc(-c4ccc(C)c(F)c4)[nH]3)CC[C@]3(C)[C@H](CC[C@@H]4[C@@]5(C)CC[C@H](OC(=O)CC(C)(C)C(=O)O)C(C)(C)[C@@H]5CC[C@]43C)[C@@H]12 [Compound 40]"
  unitLabel: "%"
  viability at 4 days, 100 μM: 25

Lab note: each molecule below needs its viability at 4 days, 100 μM filled in.
1. C=C(C)[C@@H]1CC[C@]2(C(=O)N3CCC[C@H]3c3ncc(-c4ccc(OCC)cc4)[nH]3)CC[C@]3(C)[C@H](CC[C@@H]4[C@@]5(C)CC[C@H](OC(=O)[C@H]6C[C@@H](C(=O)O)C6(C)C)C(C)(C)[C@@H]5CC[C@]43C)[C@@H]12 [Compound 5]
2. C=C(C)[C@@H]1CC[C@]2(C(=O)N3CCC[C@H]3c3nc(-c4ccc(OC)c(F)c4)c[nH]3)CC[C@]3(C)[C@H](CC[C@@H]4[C@@]5(C)CC[C@H](OC(=O)[C@H]6C[C@@H](C(=O)O)C6(C)C)C(C)(C)[C@@H]5CC[C@]43C)[C@@H]12 [Compound 25]
3. COCCO[C@@H]1C[C@@H](c2nc(-c3cccc(F)c3)c[nH]2)N(C(=O)[C@]23CC[C@@H](C4(C)CC4)[C@@H]2[C@H]2CC[C@@H]4[C@@]5(C)CC[C@H](OC(=O)[C@H]6C[C@@H](C(=O)O)C6(C)C)C(C)(C)[C@@H]5CC[C@@]4(C)[C@]2(C)CC3)C1 [Compound 54]
4. C=C(C)[C@@H]1CC[C@]2(C(=O)N3CCC[C@H]3c3ncc(-c4ccc(C)c(F)c4)[nH]3)CC[C@]3(C)[C@H](CC[C@@H]4[C@@]5(C)CC[C@H](OC(=O)[C@H]6C[C@@H](C(=O)O)C6(C)C)C(C)(C)[C@@H]5CC[C@]43C)[C@@H]12 [Compound 2]

Result:
1: 98; 2: 11; 3: 6; 4: 5

====

Assay: Single dose oral pharmacokinetic study
Format: in vivo
Details: mouse, mice, 30 mg/kg, plasma, read-out: Mice oral PK @30 mg/kg AUC 0-t
assayEndpoint: AUC(0-t)

Reference set, count: 3
- compound: "C=C(C)[C@@H]1CC[C@]2(C(=O)N3CCC[C@H]3c3ncc(-c4ccccn4)[nH]3)CC[C@]3(C)[C@H](CC[C@@H]4[C@@]5(C)CC[C@H](OC(=O)CC(C)(C)C(=O)O)C(C)(C)[C@@H]5CC[C@]43C)[C@@H]12 [Compound 39]"
  AUC(0-t): "80.9 µg·h/mL"
- compound: "CC1([C@@H]2CC[C@]3(C(=O)N4CCC[C@H]4c4ncc(-c5ccc[n+]([O-])c5)[nH]4)CC[C@]4(C)[C@H](CC[C@@H]5[C@@]6(C)CC[C@H](OC(=O)[C@H]7C[C@@H](C(=O)O)C7(C)C)C(C)(C)[C@@H]6CC[C@]54C)[C@@H]23)CC1 [Compound 53]"
  AUC(0-t): "471 µg·h/mL"
- compound: "C=C(C)[C@@H]1CC[C@]2(C(=O)N3CCC[C@H]3c3ncc(-c4ccccc4)[nH]3)CC[C@]3(C)[C@H](CC[C@@H]4[C@@]5(C)CC[C@H](OC(=O)c6ccc(OC(C)(C)C(=O)O)cc6)C(C)(C)[C@@H]5CC[C@]43C)[C@@H]12 [Compound 23]"
  AUC(0-t): "302 µg·h/mL"

Query compound follows.
The measured AUC(0-t) associated with C=C(C)[C@@H]1CC[C@]2(C(=O)N3CCC[C@H]3c3nnc(-c4ccccc4)[nH]3)CC[C@]3(C)[C@H](CC[C@@H]4[C@@]5(C)CC[C@H](OC(=O)[C@H]6C[C@@H](C(=O)O)C6(C)C)C(C)(C)[C@@H]5CC[C@]43C)[C@@H]12 [Compound 24] reads 439 µg·h/mL

====

Assay: Single dose oral pharmacokinetic study
Type: in vivo
Settings: mouse, mice, 30 mg/kg, plasma, read-out: Mice oral PK @30 mg/kg Cmax
What Cmax was measured for each of the following?
One number for each entry, in ng/mL.

Lab note: each molecule below needs its Cmax filled in.
1. C=C(C)[C@@H]1CC[C@]2(C(=O)N3CCC[C@H]3c3ncc(-c4ccccc4)[nH]3)CC[C@]3(C)[C@H](CC[C@@H]4[C@@]5(C)CC[C@H](OC(=O)c6ccc(OC(C)(C)C(=O)O)cc6)C(C)(C)[C@@H]5CC[C@]43C)[C@@H]12
2. C=C(C)[C@@H]1CC[C@]2(C(=O)N3CCC[C@H]3c3nc(C(C)C)c[nH]3)CC[C@]3(C)[C@H](CC[C@@H]4[C@@]5(C)CC[C@H](OC(=O)[C@H]6C[C@@H](C(=O)O)C6(C)C)C(C)(C)[C@@H]5CC[C@]43C)[C@@H]12
3. C=C(C)[C@@H]1CC[C@]2(C(=O)N3CCC[C@H]3c3nnc(-c4ccccc4)[nH]3)CC[C@]3(C)[C@H](CC[C@@H]4[C@@]5(C)CC[C@H](OC(=O)CC(C)(C)C(=O)O)C(C)(C)[C@@H]5CC[C@]43C)[C@@H]12
4. CC(C)(CC(=O)O)CC(=O)O[C@H]1CC[C@]2(C)[C@H]3CC[C@@H]4[C@H]5[C@H](C6(C)CC6)CC[C@]5(C(=O)N5CCC[C@H]5c5ncc(-c6cccc(F)c6)[nH]5)CC[C@@]4(C)[C@]3(C)CC[C@H]2C1(C)C
5. CC1([C@@H]2CC[C@]3(C(=O)N4CCC[C@H]4c4ncc(-c5ccc[n+]([O-])c5)[nH]4)CC[C@]4(C)[C@H](CC[C@@H]5[C@@]6(C)CC[C@H](OC(=O)[C@H]7C[C@@H](C(=O)O)C7(C)C)C(C)(C)[C@@H]6CC[C@]54C)[C@@H]23)CC1

Result:
1: 10600; 2: 19600; 3: 20800; 4: 5250; 5: 14700

Lab note: each molecule below needs its Cmax filled in.
1. C=C(C)[C@@H]1CC[C@]2(C(=O)N3C[C@H](OCCOC)C[C@H]3c3nc(-c4ccccc4)c[nH]3)CC[C@]3(C)[C@H](CC[C@@H]4[C@@]5(C)CC[C@H](OC(=O)[C@H]6C[C@@H](C(=O)O)C6(C)C)C(C)(C)[C@@H]5CC[C@]43C)[C@@H]12
2. C=C(C)[C@@H]1CC[C@]2(C(=O)N3C4CCC3CC(n3c(C)nnc3C(C)C)C4)CC[C@]3(C)[C@H](CC[C@@H]4[C@@]5(C)CC[C@H](OC(=O)CC(C)(C)C(=O)O)C(C)(C)[C@@H]5CC[C@]43C)[C@@H]12 (stereo partly shown)

Result:
1: 12800; 2: 10800

====

Assay: in vitro
assayEndpoint: viability at 4 days, 10 μM
Number plus unit, in that order.

- compound: "COCCO[C@@H]1C[C@@H](c2nc(-c3cccc(F)c3)c[nH]2)N(C(=O)[C@]23CC[C@@H](C4(C)CC4)[C@@H]2[C@H]2CC[C@@H]4[C@@]5(C)CC[C@H](OC(=O)[C@H]6C[C@@H](C(=O)O)C6(C)C)C(C)(C)[C@@H]5CC[C@@]4(C)[C@]2(C)CC3)C1 [Compound 54]"
  viability at 4 days, 10 μM: "49%"
- compound: "C=C(C)[C@@H]1CC[C@]2(C(=O)N3CCC[C@H]3c3ncc(-c4ccc(C)c(F)c4)[nH]3)CC[C@]3(C)[C@H](CC[C@@H]4[C@@]5(C)CC[C@H](OC(=O)[C@H]6C[C@@H](C(=O)O)C6(C)C)C(C)(C)[C@@H]5CC[C@]43C)[C@@H]12 [Compound 2]"
  viability at 4 days, 10 μM: "64%"

The measured viability at 4 days, 10 μM associated with C=C(C)[C@@H]1CC[C@]2(C(=O)N3CCC[C@H]3c3nc(-c4ccc(OC)c(F)c4)c[nH]3)CC[C@]3(C)[C@H](CC[C@@H]4[C@@]5(C)CC[C@H](OC(=O)[C@H]6C[C@@H](C(=O)O)C6(C)C)C(C)(C)[C@@H]5CC[C@]43C)[C@@H]12 [Compound 25] reads 65%

====

Experiment: Single dose oral pharmacokinetic study
Assay type: in vivo
Conditions: mouse, mice, 30 mg/kg, plasma, read-out: Mice oral PK @30 mg/kg Cmax
assayEndpoint: Cmax (ng/mL)
Numbers only, in ng/mL.

- smilesCode: "COCCOc1ccc(-c2cnc([C@@H]3CCCN3C(=O)[C@]34CC[C@@H](C5(C)CC5)[C@@H]3[C@H]3CC[C@@H]5[C@@]6(C)CC[C@H](OC(=O)CC(C)(C)C(=O)O)C(C)(C)[C@@H]6CC[C@@]5(C)[C@]3(C)CC4)[nH]2)cc1"
  unitLabel: "ng/mL"
  Cmax: 6590
- smilesCode: "C=C(C)[C@@H]1CC[C@]2(C(=O)N3C[C@H](OCCOC)C[C@H]3c3nc(-c4cccnc4)c[nH]3)CC[C@]3(C)[C@H](CC[C@@H]4[C@@]5(C)CC[C@H](OC(=O)[C@H]6C[C@@H](C(=O)O)C6(C)C)C(C)(C)[C@@H]5CC[C@]43C)[C@@H]12"
  unitLabel: "ng/mL"
  Cmax: 17900
- smilesCode: "CC1([C@@H]2CC[C@]3(C(=O)N4CCC[C@H]4c4ncc(C(F)(F)F)[nH]4)CC[C@]4(C)[C@H](CC[C@@H]5[C@@]6(C)CC[C@H](OC(=O)[C@H]7C[C@@H](C(=O)O)C7(C)C)C(C)(C)[C@@H]6CC[C@]54C)[C@@H]23)CC1"
  unitLabel: "ng/mL"
  Cmax: 15700

Lab note: each molecule below needs its Cmax filled in.
1. C=C(C)[C@@H]1CC[C@]2(C(=O)N3CCC[C@H]3c3ncc(-c4ccc(Cl)cc4)[nH]3)CC[C@]3(C)[C@H](CC[C@@H]4[C@@]5(C)CC[C@H](OC(=O)[C@H]6C[C@@H](C(=O)O)C6(C)C)C(C)(C)[C@@H]5CC[C@]43C)[C@@H]12
2. C=C(C)[C@@H]1CC[C@]2(C(=O)N3CCC[C@H]3c3nc(C)c(C)[nH]3)CC[C@]3(C)[C@H](CC[C@@H]4[C@@]5(C)CC[C@H](OC(=O)[C@H]6C[C@@H](C(=O)O)C6(C)C)C(C)(C)[C@@H]5CC[C@]43C)[C@@H]12
3. COCCO[C@@H]1C[C@@H](c2nc(-c3ccc(F)cc3)c[nH]2)N(C(=O)[C@]23CC[C@@H](C4(C)CC4)[C@@H]2[C@H]2CC[C@@H]4[C@@]5(C)CC[C@H](OC(=O)[C@H]6C[C@@H](C(=O)O)C6(C)C)C(C)(C)[C@@H]5CC[C@@]4(C)[C@]2(C)CC3)C1

Result:
[7500, 14000, 14300]

The measured Cmax associated with Cc1nnc(C(C)C)n1C1CCN(C(=O)[C@]23CC[C@@H](C4(C)CC4)[C@@H]2[C@H]2CC[C@@H]4[C@@]5(C)CC[C@H](OC(=O)[C@H]6C[C@@H](C(=O)O)C6(C)C)C(C)(C)[C@@H]5CC[C@@]4(C)[C@]2(C)CC3)CC1 reads 3050
